The reported numbers originate from PubChem BioAssay AID1159580.

ASSAY_NOTES: chemical genetic growth profiling, strain panel (AID 1159580);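 note: tested at 20 µM; growth read once vehicle control cultures reached saturation at 30 °C; lower values mean less growth of the strain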
CONDITION_SUMMARY: S. cerevisiae deletion strains, growth OD, locus YFR010W, strain ubp6
In all, about 5,500 compounds went through this assay and about 2,000 (36%) were called active. About 18% were inconclusive and are not listed. Cut-off read from the data, not from the text of the source: active = normalized growth mostly below about 0.91 (no sharp cut-off); inconclusive = no clear call, values can overlap the other calls; inactive = mostly above about 0.92. This is one part of the list.
Would you mind answering with one of these outcomes? active, inactive

QUERY: Please indicate how the test categorized Nc1ncnc2c1ncn2C1C[C@H](O)[C@@H](CO)O1 (some centres undefined) .
RESULT: inactive

QUERY: Another compound to check: "CCN(CC)CCOc1ccc(/C(=C(\Cl)c2ccccc2)c2ccccc2)cc1"
RESULT: active

QUERY: Another compound to check: "CC/C(=C(\c1ccccc1)c1ccc(OCCN(C)C)cc1)c1ccccc1"
RESULT: active

QUERY: Another compound to check: CO[C@H]1/C=C/O[C@@]2(C)Oc3c(C)c(O)c4c(O)c(c(/C=N/N5CCN(C)CC5)c(O)c4c3C2=O)NC(=O)/C(C)=C\C=C\C(C)[C@H](O)[C@@H](C)[C@@H](O)[C@@H](C)[C@@H](OC(C)=O)[C@@H]1C (some centres undefined)
RESULT: inactive

QUERY: Another compound to check: Nc1ncnc2c1ncn2C1O[C@H](COP(=O)(O)O)[C@@H](O)[C@H]1O (some centres undefined)
RESULT: inactive

QUERY: Another compound to check: O=C1O[C@H](C(O)CO)C(O)=C1O (some centres undefined)
RESULT: inactive

QUERY: Another compound to check: "C=C(CC)C(=O)c1ccc(OCC(=O)O)c(Cl)c1Cl"
RESULT: inactive

QUERY: Another compound to check: "COc1ccc(C(Cl)=C(c2ccc(OC)cc2)c2ccc(OC)cc2)cc1"
RESULT: inactive

QUERY: Another compound to check: "Nc1ncnc2c1ncn2[C@@H]1O[C@H](CO)[C@@H](O)[C@H]1O"
RESULT: inactive
